// reported viscosity per item
Conditions: 283.15 K; 101.33 kPa; Liquid; Surface Light Scattering
Use mPa·s as the unit, but write only the number.

compound="CCn1cc[n+](C)c1.CS(=O)(=O)[O-] [1-ethyl-3-methylimidazolium methanesulfonate]" readout_unit=mPa·s result=435.5

Data request: Quick one: viscosity of CCCCn1cc[n+](CCCC)c1.O=S(=O)([N-]S(=O)(=O)C(F)(F)F)C(F)(F)F ?
Data returned: 152.1

Data request: Repeat for the following compound: CCn1cc[n+](C)c1.CO[PH](=O)[O-] [1-ethyl-3-methylimidazolium methyl phosphonate]
Data returned: 266.6

Data request: Repeat for the following compound: CCCCCCCCOS(=O)(=O)[O-].CCn1cc[n+](C)c1 [1-ethyl-3-methylimidazolium octyl sulfate]
Data returned: 1578.5

* * *

Conditions: 288.15 K; 101.33 kPa; Liquid; Surface Light Scattering
Numbers after ± are expanded uncertainties.
// reported viscosity per item
Could you give the number and then its unit, please?

The cases that follow already have their viscosity on record.
compound="CCn1cc[n+](C)c1.CS(=O)(=O)[O-] [1-ethyl-3-methylimidazolium methanesulfonate]" result="290.1 ± 18 mPa·s"
compound="CCCCCCCCOS(=O)(=O)[O-].CCn1cc[n+](C)c1 [1-ethyl-3-methylimidazolium octyl sulfate]" result="1045.1 ± 63 mPa·s"
compound="CCn1cc[n+](C)c1.CO[PH](=O)[O-] [1-ethyl-3-methylimidazolium methyl phosphonate]" result="193.2 ± 12 mPa·s"

Let's switch to this compound now.
Data request: Quick one: viscosity of CCCCn1cc[n+](CCCC)c1.O=S(=O)([N-]S(=O)(=O)C(F)(F)F)C(F)(F)F ?
Data returned: 115.3 ± 6.9 mPa·s

* * *

Details: 278.15 K; 101.33 kPa; Liquid
quantity.measured: mass density (kg/m3)
Use kg/m3 as the unit, but write only the number.

Data request: Quick one: mass density of CCn1cc[n+](C)c1.CS(=O)(=O)[O-] [1-ethyl-3-methylimidazolium methanesulfonate] ?
Data returned: 1255.59

Data request: Repeat for the following compound: CCCCCCCCOS(=O)(=O)[O-].CCn1cc[n+](C)c1 [1-ethyl-3-methylimidazolium octyl sulfate]
Data returned: 1108

Data request: Repeat for the following compound: CCn1cc[n+](C)c1.CO[PH](=O)[O-] [1-ethyl-3-methylimidazolium methyl phosphonate]
Data returned: 1205.29

Data request: Repeat for the following compound: CCCCn1cc[n+](CCCC)c1.O=S(=O)([N-]S(=O)(=O)C(F)(F)F)C(F)(F)F
Data returned: 1358.06

* * *

// reported mass density per item
Details: 313.15 K; 101.33 kPa; Liquid
Numbers after ± are expanded uncertainties.

compound="CCn1cc[n+](C)c1.CS(=O)(=O)[O-] [1-ethyl-3-methylimidazolium methanesulfonate]" result="1231.4 ± 1.4 kg/m3"
compound="CCCCCCCCOS(=O)(=O)[O-].CCn1cc[n+](C)c1 [1-ethyl-3-methylimidazolium octyl sulfate]" result="1084.2 ± 1 kg/m3"
compound="CCn1cc[n+](C)c1.CO[PH](=O)[O-] [1-ethyl-3-methylimidazolium methyl phosphonate]" result="1181.92 ± 2.1 kg/m3"

Data request: Quick one: mass density of CCCCn1cc[n+](CCCC)c1.O=S(=O)([N-]S(=O)(=O)C(F)(F)F)C(F)(F)F ?
Data returned: 1326.56 ± 1.9 kg/m3

* * *

Details: 293.15 K, Drop weight
quantity.measured: surface tension liquid-gas (mN/m)
Use mN/m as the unit, but write only the number.

compound="CCCCCCCCOS(=O)(=O)[O-].CCn1cc[n+](C)c1 [1-ethyl-3-methylimidazolium octyl sulfate]" readout_unit=mN/m result=31
compound=CCCCn1cc[n+](CCCC)c1.O=S(=O)([N-]S(=O)(=O)C(F)(F)F)C(F)(F)F readout_unit=mN/m result=29.55
compound="CCn1cc[n+](C)c1.CS(=O)(=O)[O-] [1-ethyl-3-methylimidazolium methanesulfonate]" readout_unit=mN/m result=50.72

Data request: Quick one: surface tension liquid-gas of CCn1cc[n+](C)c1.CO[PH](=O)[O-] [1-ethyl-3-methylimidazolium methyl phosphonate] ?
Data returned: 45.49

* * *

Settings: 323.15 K; 101.33 kPa; Liquid; Surface Light Scattering
quantity.measured: viscosity (mPa·s)
Use mPa·s as the unit, but write only the number.

The cases that follow already have their viscosity on record.
molecule="CCCCCCCCOS(=O)(=O)[O-].CCn1cc[n+](C)c1 [1-ethyl-3-methylimidazolium octyl sulfate]" quantity_measured=viscosity result=126.2
molecule=CCCCn1cc[n+](CCCC)c1.O=S(=O)([N-]S(=O)(=O)C(F)(F)F)C(F)(F)F quantity_measured=viscosity result=26.5
molecule="CCn1cc[n+](C)c1.CO[PH](=O)[O-] [1-ethyl-3-methylimidazolium methyl phosphonate]" quantity_measured=viscosity result=36.4

Let's switch to this molecule now.
Data request: Quick one: viscosity of CCn1cc[n+](C)c1.CS(=O)(=O)[O-] [1-ethyl-3-methylimidazolium methanesulfonate] ?
Data returned: 44.6

* * *

Details: 308.15 K; 101.33 kPa; Liquid
// reported mass density per item
Use kg/m3 as the unit, but write only the number.

The cases that follow already have their mass density on record.
compound=CCCCn1cc[n+](CCCC)c1.O=S(=O)([N-]S(=O)(=O)C(F)(F)F)C(F)(F)F quantity_measured="mass density" result=1331.02
compound="CCn1cc[n+](C)c1.CS(=O)(=O)[O-] [1-ethyl-3-methylimidazolium methanesulfonate]" quantity_measured="mass density" result=1234.77
compound="CCCCCCCCOS(=O)(=O)[O-].CCn1cc[n+](C)c1 [1-ethyl-3-methylimidazolium octyl sulfate]" quantity_measured="mass density" result=1087.52

Let's switch to this compound now.
Data request: Quick one: mass density of CCn1cc[n+](C)c1.CO[PH](=O)[O-] [1-ethyl-3-methylimidazolium methyl phosphonate] ?
Data returned: 1185.21

* * *

Conditions: 303.15 K; 101.33 kPa; Liquid; Surface Light Scattering
Numbers after ± are expanded uncertainties.
// reported viscosity per item
Could you give the number and then its unit, please?

compound="CCn1cc[n+](C)c1.CO[PH](=O)[O-] [1-ethyl-3-methylimidazolium methyl phosphonate]" quantity_measured=viscosity result="83.4 ± 5.1 mPa·s"

Data request: Quick one: viscosity of CCCCCCCCOS(=O)(=O)[O-].CCn1cc[n+](C)c1 [1-ethyl-3-methylimidazolium octyl sulfate] ?
Data returned: 368.1 ± 22 mPa·s

Data request: Repeat for the following compound: CCn1cc[n+](C)c1.CS(=O)(=O)[O-] [1-ethyl-3-methylimidazolium methanesulfonate]
Data returned: 112.9 ± 6.8 mPa·s

Data request: Repeat for the following compound: CCCCn1cc[n+](CCCC)c1.O=S(=O)([N-]S(=O)(=O)C(F)(F)F)C(F)(F)F
Data returned: 57.2 ± 3.4 mPa·s

* * *

// reported mass density per item
Conditions: 318.15 K; 101.33 kPa; Liquid
± gives the expanded uncertainty stated by the source.

The cases that follow already have their mass density on record.
compound="CCn1cc[n+](C)c1.CO[PH](=O)[O-] [1-ethyl-3-methylimidazolium methyl phosphonate]" result="1178.65 ± 2 kg/m3"
compound=CCCCn1cc[n+](CCCC)c1.O=S(=O)([N-]S(=O)(=O)C(F)(F)F)C(F)(F)F result="1322.09 ± 1.9 kg/m3"
compound="CCn1cc[n+](C)c1.CS(=O)(=O)[O-] [1-ethyl-3-methylimidazolium methanesulfonate]" result="1228.03 ± 1.4 kg/m3"

Data request: Quick one: mass density of CCCCCCCCOS(=O)(=O)[O-].CCn1cc[n+](C)c1 [1-ethyl-3-methylimidazolium octyl sulfate] ?
Data returned: 1080.97 ± 1 kg/m3

* * *

// reported mass density per item
Settings: 293.15 K; 101.33 kPa; Liquid
Use kg/m3 as the unit, but write only the number.

compound=CCCCn1cc[n+](CCCC)c1.O=S(=O)([N-]S(=O)(=O)C(F)(F)F)C(F)(F)F result=1344.5
compound="CCn1cc[n+](C)c1.CO[PH](=O)[O-] [1-ethyl-3-methylimidazolium methyl phosphonate]" result=1195.12
compound="CCCCCCCCOS(=O)(=O)[O-].CCn1cc[n+](C)c1 [1-ethyl-3-methylimidazolium octyl sulfate]" result=1097.48

Let's switch to this compound now.
Data request: Quick one: mass density of CCn1cc[n+](C)c1.CS(=O)(=O)[O-] [1-ethyl-3-methylimidazolium methanesulfonate] ?
Data returned: 1244.96

* * *

Assay: refractive index (Na D-line) (dimensionless)
Conditions: 283.15 K; 101.33 kPa; Liquid
Numbers after ± are expanded uncertainties.
quantity.measured: refractive index

The cases that follow already have their refractive index on record.
compound=CCCCn1cc[n+](CCCC)c1.O=S(=O)([N-]S(=O)(=O)C(F)(F)F)C(F)(F)F result="1.4376 ± 0.0016"
compound="CCCCCCCCOS(=O)(=O)[O-].CCn1cc[n+](C)c1 [1-ethyl-3-methylimidazolium octyl sulfate]" result="1.4786 ± 0.0015"
compound="CCn1cc[n+](C)c1.CS(=O)(=O)[O-] [1-ethyl-3-methylimidazolium methanesulfonate]" result="1.5018 ± 0.0015"

Data request: Quick one: refractive index of CCn1cc[n+](C)c1.CO[PH](=O)[O-] [1-ethyl-3-methylimidazolium methyl phosphonate] ?
Data returned: 1.4969 ± 0.0016

Provenance of the data: the NIST ThermoML archive (doi:10.1021/je900134z)
